Each recorded value in this set is attributed to patent US8937067B2.

molecular target: hPK-M2 (Homo sapiens, UniProt P14618); assay: Fluorescent pyruvate kinase-lactate dehydrogenase (LDH) coupled secondary assay; format: biochemical; details: % activation at 57 μM of compound
Sequence (P14618 whole entry): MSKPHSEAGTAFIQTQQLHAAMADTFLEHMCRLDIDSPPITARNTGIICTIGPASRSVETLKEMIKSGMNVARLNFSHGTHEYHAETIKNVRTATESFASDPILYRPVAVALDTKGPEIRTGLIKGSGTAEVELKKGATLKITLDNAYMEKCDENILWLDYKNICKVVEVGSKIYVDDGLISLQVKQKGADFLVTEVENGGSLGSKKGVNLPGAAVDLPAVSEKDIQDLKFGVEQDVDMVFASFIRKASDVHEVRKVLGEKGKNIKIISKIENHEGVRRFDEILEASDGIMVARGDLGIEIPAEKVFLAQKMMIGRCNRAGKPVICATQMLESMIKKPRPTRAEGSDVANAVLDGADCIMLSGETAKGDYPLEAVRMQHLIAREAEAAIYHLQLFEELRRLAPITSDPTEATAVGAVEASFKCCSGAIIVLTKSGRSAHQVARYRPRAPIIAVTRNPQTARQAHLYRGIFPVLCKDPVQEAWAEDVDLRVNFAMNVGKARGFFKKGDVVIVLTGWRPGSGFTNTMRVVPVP
Listed compounds paired with reported LDH hPK, M2 Max. Res.
Write the value in % as a bare number.

CC(=O)Nc1cccc(S(=O)(=O)N2CCCN(S(=O)(=O)c3ccc4c(c3)OCCO4)CC2)c1 [Compound 131]; 123.67
Cc1ccc(N[S+](=O)([O-])c2ccc3c(c2)CCC(=O)N3)cc1C [Compound 150]; 153.98
COc1cc(F)c(S(=O)(=O)N2CCCN(S(=O)(=O)c3cccc(N)c3)CC2)c(F)c1 [Compound 141]; 157.96
Nc1cccc(S(=O)(=O)N2CCN(S(=O)(=O)c3ccc4c(c3)OCCO4)CC2)c1 [Compound 135]; 98.13
COc1cc(F)c(S(=O)(=O)N2CCN(S(=O)(=O)c3cccc(N)c3)CC2)c(F)c1 [Compound 134]; 141.67

Query (compound): Nc1ccc(S(=O)(=O)N2CCN(S(=O)(=O)c3c(F)cccc3F)CC2)cc1 [Compound 123] ; field requested: LDH hPK, M2 Max. Res.
170.98

Query (compound): Nc1cccc(S(=O)(=O)N2CCN(S(=O)(=O)c3c(F)cccc3F)CC2)c1 [Compound 137] ; field requested: LDH hPK, M2 Max. Res.
154.42

---

Listed molecules paired with reported Emax
target: hPK-M2 (Homo sapiens); assay: Fluorescent pyruvate kinase-lactate dehydrogenase (LDH) coupled secondary assay; format: biochemical; settings: read-out: maximum response, LDH assay

Consider the following illustrative entries.
Cc1cc2c(s1)c1cnn(Cc3ccc(C(F)(F)F)cc3F)c(=O)c1n2C [Compound 120]; < 80%
Cc1cc2c(s1)c1cnn(Cc3ccc(C(F)(F)F)cc3)c(=O)c1n2C [Compound 110]; 77%
COc1ccc(Cn2ncc3c4sc(C)cc4n(C)c3c2=O)cc1 [Compound 111]; 258%
CC(C)c1cc2c(s1)c1cnn(Cc3ccccc3F)c(=O)c1n2C [Compound 69]; 302%
Cc1cc2c(s1)c1c(C)nn(Cc3ccccc3F)c(=O)c1n2C [Compound 92]; < 80%

Query (molecule): O=S(=O)(c1ccc2c(c1)OCCCO2)N1CCN(S(=O)(=O)c2c(F)cccc2F)CC1 [Compound 23] ; field requested: Emax
109%

Query (molecule): Cc1cc2c(s1)c1cnn(Cc3ccc(F)cc3F)c(=O)c1n2C [Compound 112] ; field requested: Emax
217%

---

target: hPK-M2 (Homo sapiens, UniProt P14618); assay: Luminescent pyruvate kinase-luciferase coupled assay (KinaseGlo); format: biochemical; settings: KinaseGlo; % activation at 57 μM of compound
Decision: hPK, M2 Max. Res. >= 90% yields TRUE, all other cases yield FALSE.

COc1cc(F)c(S(=O)(=O)N2CCCN(S(=O)(=O)c3cccc(N)c3)CC2)c(F)c1; TRUE
Nc1cccc(S(=O)(=O)N2CCN(S(=O)(=O)c3c(F)cccc3F)CC2)c1; FALSE
COc1cc(F)c(S(=O)(=O)N2CCN(S(=O)(=O)c3cccc(N)c3)CC2)c(F)c1; FALSE
CNc1cccc(S(=O)(=O)N2CCN(S(=O)(=O)c3ccc4c(c3)OCCO4)CC2)c1; FALSE

I'd appreciate it if you could say whether "CCn1c2cc(C)sc2c2cnn(Cc3ccccc3F)c(=O)c21" has hPK, M2 Max. Res. at least equal to 90%.
TRUE
